// inhibition at 1 µM lookup, one value per entry
target: full-length human RORγt (Homo sapiens (Human)); test: RORγt (full-length human) reporter assay, conditions A or B, HEK293T cells; type: cell-based; conditions: HEK-293T; 1 μM compound concentration (footnote ***); read-out: RORγt (FL) Reporter Assay A or B, % inhibition
Sequence (P51449 other isoform, or with tags, fused parts or gaps): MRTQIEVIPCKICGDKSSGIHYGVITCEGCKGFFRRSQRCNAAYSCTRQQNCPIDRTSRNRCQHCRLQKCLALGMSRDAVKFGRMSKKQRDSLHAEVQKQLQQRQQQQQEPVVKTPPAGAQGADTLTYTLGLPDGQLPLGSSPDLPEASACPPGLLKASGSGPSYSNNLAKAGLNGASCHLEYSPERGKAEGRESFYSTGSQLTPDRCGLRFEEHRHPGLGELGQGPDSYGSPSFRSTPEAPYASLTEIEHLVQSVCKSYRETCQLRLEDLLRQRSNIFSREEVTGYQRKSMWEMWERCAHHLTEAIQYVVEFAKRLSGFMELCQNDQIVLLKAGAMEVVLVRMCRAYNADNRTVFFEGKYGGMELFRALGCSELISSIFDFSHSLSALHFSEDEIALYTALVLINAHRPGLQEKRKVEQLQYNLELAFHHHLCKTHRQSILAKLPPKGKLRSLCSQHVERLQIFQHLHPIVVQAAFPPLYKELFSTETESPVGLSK
Where a name gives a salt, the structure may show the parent alone.
Answer in %, number only, no unit symbol.

# molecule, unit-abbrev, val
rows = [
    ("CCn1nc(C(=O)NC[C@]2(CO)CC[C@@H](S(C)(=O)=O)CC2)c(Cl)c1-c1ccc(CC(C)(C)C(F)(F)F)cc1OC(F)F", "%", 99),
    ("CCn1nc(C(=O)NC[C@H]2CC[C@H](S(N)(=O)=O)CC2)c(Cl)c1-c1ccc(C[C@@H](C)C(F)(F)F)cc1OC(F)F (single isomer, unassigned)", "%", 122),
    ("CCn1nc(C(=O)NC[C@@]2(O)CC[C@H](S(C)(=O)=O)C[C@@H]2O)c(Cl)c1-c1ccc(C[C@@H](C)C(F)(F)F)cc1OC(F)F (stereo in doubt)", "%", 101),
]

*Q* Enter reported inhibition at 1 µM observed with full-length human RORγt (Homo sapiens (Human)) for CCn1nc(C(=O)NC[C@H]2CC[C@H](S(C)(=O)=O)CN2)c(Cl)c1-c1ccc(CC(C)(C)C(F)(F)F)cc1OC(F)F (stereo in doubt) [Example 9, hydrobromide]
*A* 104

*Q* Thanks! And CCn1nc(C(=O)NC[C@]2(O)CC[C@@H](S(C)(=O)=O)C[C@H]2O)c(Cl)c1-c1ccc(C[C@H](C)C(F)(F)F)cc1OC(F)F (stereo in doubt) ?
*A* 99

*Q* Thanks! And CCn1nc(C(=O)NC[C@@H]2CC[C@@H](S(C)(=O)=O)C[C@H]2O)c(Cl)c1-c1ccc(CC(C)(C)C(F)(F)F)cc1OC(F)F (single isomer, unassigned) ?
*A* 100

*Q* Thanks! And CCn1nc(C(=O)NC[C@]2(O)CC[C@@H](S(C)(=O)=O)CC2)c(Cl)c1-c1ccc(C(O)C(C)(C)C(F)(F)F)cc1OC(F)F (stereo partly drawn) ?
*A* 115

*Q* Thanks! And CCn1nc(C(=O)NC[C@@]2(O)CC[C@H](S(C)(=O)=O)C[C@@H]2N)c(Cl)c1-c1ccc(CC(C)(C)C(F)(F)F)cc1OC(F)F (stereo in doubt) [Example 7, hydrobromide] ?
*A* 103

*Q* Thanks! And CCn1nc(C(=O)NC[C@H]2CC[C@H](S(C)(=O)=O)CC2)c(Cl)c1-c1ccc(C2(O)CCC(C(F)(F)F)CC2)cc1OC(F)F (single isomer, unassigned) ?
*A* 82

----------
target: UniProt P51449; assay: RORγt (full-length human) reporter assay, conditions A or B, HEK293T cells; type: cell-based; details: RORγt (FL) Reporter Assay A or B, IC50, HEK293T cells
pIC50: −log10 of the molar value.
Classify as follows. Reported pIC50 greater than or equal to 8: met. Reported pIC50 below: not met.

The examples below pair each entry with its known result.
# compound, class-assignment
records = [
    ("CCn1nc(C(=O)NC[C@@]2(O)CC[C@H](S(C)(=O)=O)C[C@@H]2O)c(Cl)c1-c1ccc(CC(C)(C)C(F)(F)F)cc1OC(F)F (single isomer, unassigned) [Example 47]", "met"),
    ("CCn1nc(C(=O)NC[C@H]2CC[C@H](S(C)(=O)=O)CC2)c(Cl)c1-c1ccc(CC(C)(C)CC(F)(F)F)cc1OC(F)F [Example 89]", "met"),
    ("CCn1nc(C(=O)NC[C@@H]2CC[C@@H](S(C)(=O)=O)C[C@H]2O)c(Cl)c1-c1ccc(CC(C)(C)C(F)(F)F)cc1OC(F)F (single isomer, unassigned) [Example 22]", "met"),
    ("CCOC(=O)[C@]1(CNC(=O)c2nn(CC)c(-c3ccc(CC(C)(C)C(F)(F)F)cc3OC(F)F)c2Cl)CC[C@H](S(C)(=O)=O)CC1 [Example 118]", "met"),
    ("CCn1nc(C(=O)NC[C@]2(O)CC[C@@H](S(C)(=O)=O)CC2)c(Cl)c1-c1ccc(CC(C)(C)C(F)(F)F)cc1C#N [Example 88]", "not met"),
    ("CCn1nc(C(=O)NC[C@H]2CC[C@H](S(C)(=O)=O)CC2)c(Cl)c1-c1ccc(N[C@H](C)C(F)(F)F)cc1C [Example 184]", "not met"),
    ("CCn1nc(C(=O)NC[C@H]2CC[C@H](S(C)(=O)=O)CC2)c(C)c1-c1ccc(CC(C(F)(F)F)C(F)(F)F)cc1OC(F)F [Example 87]", "met"),
    ("CCOC(=O)[C@]1(CNC(=O)c2nn(CC)c(-c3ccc(CC(C)(C)C(F)(F)F)cc3OC(F)F)c2Cl)CC[C@@H](S(C)(=O)=O)CC1 [Example 120]", "not met"),
]

*Q* Is it the case that CCn1nc(C(=O)NC[C@]2(O)CC[C@@H](S(C)(=O)=O)CC2)c(Cl)c1-c1c(F)cc(C[C@@H](C)C(F)(F)F)cc1F (single isomer, unassigned) [Example 199] has pIC50 reaching or exceeding 8?
*A* not met

*Q* Thanks! And CCn1nc(C(=O)NC[C@@H]2CC[C@@H](S(C)(=O)=O)CO2)c(Cl)c1-c1ccc(CC(C)(C)C(F)(F)F)cc1OC(F)F (single isomer, unassigned) [Example 16] ?
*A* met

----------
biological target: full-length human RORγt (Homo sapiens (Human)); experiment: RORγt (full-length human) reporter assay, conditions A or B, HEK293T cells; assay type: cell-based; settings: RORγt (FL) Reporter Assay A or B, IC50, HEK293T cells
Counter-ions that a name gives are not always drawn.
value-kind: pIC50
FYI, pIC50 means -log10 of a concentration in mol per litre.

The examples below pair each entry with its known result.
# compound, pIC50
data = [
    ("CCn1nc(C(=O)NC[C@]2(O)CC[C@@H](S(C)(=O)=O)C[C@H]2N)c(Cl)c1-c1ccc(CC(C)(C)C(F)(F)F)cc1OC(F)F (single isomer, unassigned) [Example 6, Hydrobromide]", 7.54),
    ("CCn1nc(C(=O)NC[C@@H]2CC[C@H](S(C)(=O)=O)CO2)c(Cl)c1-c1ccc(N[C@H](C)C(F)(F)F)cc1OC (relative stereo) [Example 18]", 6.08),
    ("CCOC(=O)[C@]1(CNC(=O)c2nn(CC)c(-c3ccc(N[C@H](C)C(F)(F)F)cc3OC)c2Cl)CC[C@H](S(C)(=O)=O)CC1 (relative stereo) [Example 94]", 8.22),
    ("CCn1nc(C(=O)NC[C@H]2CC[C@H](S(C)(=O)=O)CC2)c(C)c1-c1ccc(CC(C)(C)C(F)(F)F)cc1OC [Example 227]", 8.05),
]

*Q* If you can, please state the reported pIC50 value of CCn1nc(C(=O)NC[C@H]2CC[C@@H](S(C)(=O)=O)CC2)c(Cl)c1-c1ccc(N[C@H](C)C(F)(F)F)cc1Cl [Example 175] .
*A* 6.29

*Q* Thanks! And CCn1nc(C(=O)NC[C@H]2CC[C@H](S(C)(=O)=O)CC2)c(Cl)c1-c1ccc(CC(C)C)cc1OC [Example 72] ?
*A* 8.00

*Q* Thanks! And CCn1nc(C(=O)NC[C@H]2CC[C@H](S(C)(=O)=O)CC2)c(F)c1-c1ccc(N[C@H](C)C(F)(F)F)cc1OC [Example 203] ?
*A* 6.89

*Q* Thanks! And CCn1nc(C(=O)NC[C@H]2CC[C@H](S(N)(=O)=O)CC2)c(Cl)c1-c1ccc(C[C@H](C)C(F)(F)F)cc1OC(F)F (single isomer, unassigned) [Example 54] ?
*A* 8.01

*Q* Thanks! And CCn1nc(C(=O)NC[C@H]2CC[C@H](S(C)(=O)=O)CC2)c(Cl)c1-c1ccc(CC(C)(C)C(F)(F)F)cc1 [Example 168] ?
*A* 7.74

*Q* Thanks! And CCOc1cc(N[C@H](C)C(F)(F)F)ccc1-c1c(Cl)c(C(=O)NC[C@H]2CC[C@H](S(C)(=O)=O)CC2)nn1CC [Example 205] ?
*A* 7.54

*Q* Thanks! And CCn1nc(C(=O)NC[C@H]2CC[C@H](S(C)(=O)=O)CC2)c(Cl)c1-c1ccc(CCC(F)(F)F)cc1Cl [Example 174] ?
*A* 7.42

*Q* Thanks! And CCn1nc(C(=O)NC[C@H]2CC[C@H](S(N)(=O)=O)CC2)c(Cl)c1-c1ccc(CC(C)(C)C(F)(F)F)cc1OC(F)F [Example 51] ?
*A* 8.34

----------
target: UniProtKB P51449; assay: RORγt (full-length human) reporter assay, conditions A or B, HEK293T cells; assay type: cell-based; details: RORγt (FL) Reporter Assay A or B, IC50, HEK293T cells
// pIC50 lookup, one value per entry
FYI, pIC50 means -log10 of a concentration in mol per litre.

# compound, pIC50
records = [
    ("CCn1nc(C(=O)NC[C@H]2CC[C@H](S(C)(=O)=O)CC2)c(Cl)c1-c1ccc(CC(C)(C)C(F)(F)F)cc1C", 7.72),
]

Field: next compound
*Q* If you can, please state the reported pIC50 value of CCn1nc(C(=O)NC[C@H]2CC[C@H](S(=O)(=O)CC)CC2)c(Cl)c1-c1ccc(CC(C)(C)C(F)(F)F)cc1OC(F)F .
*A* 8.34

Data provenance: patent US10975037B2
